- testProtocol: Pharmacokinetic measurements in rats (i.v., i.t., oral)
- Format: in vivo
- testParameters: rat, i.t. dose 0.1 (nintedanib 0.42)
Structures can show the parent of a compound that is named as a salt.
assayEndpoint: i.t. BAV (%)

>>> observedresult("COC(=O)c1cc2c(cc1C)/C(=C(/Nc1ccc(C(=O)NCC(=O)N3CCN(CCO)CC3)cc1)c1ccccc1)C(=O)N2")
35
>>> observedresult("COC(=O)c1cc2c(cc1C)/C(=C(/Nc1ccc(C(=O)NC3CCN(C)CC3)cc1)c1ccccc1)C(=O)N2 [Example 18, formate]")
39
>>> observedresult("COC(=O)c1ccc2c(c1)NC(=O)/C2=C(\\Nc1ccc(N(C)C(=O)CN2CCN(C)CC2)cc1)c1ccccc1 [Nintedanib, reference compound]")
43

###

- targetUnderTest: PDGFRβ (Homo sapiens (Human), UniProt P09619)
- Sequence (P09619 33-1106): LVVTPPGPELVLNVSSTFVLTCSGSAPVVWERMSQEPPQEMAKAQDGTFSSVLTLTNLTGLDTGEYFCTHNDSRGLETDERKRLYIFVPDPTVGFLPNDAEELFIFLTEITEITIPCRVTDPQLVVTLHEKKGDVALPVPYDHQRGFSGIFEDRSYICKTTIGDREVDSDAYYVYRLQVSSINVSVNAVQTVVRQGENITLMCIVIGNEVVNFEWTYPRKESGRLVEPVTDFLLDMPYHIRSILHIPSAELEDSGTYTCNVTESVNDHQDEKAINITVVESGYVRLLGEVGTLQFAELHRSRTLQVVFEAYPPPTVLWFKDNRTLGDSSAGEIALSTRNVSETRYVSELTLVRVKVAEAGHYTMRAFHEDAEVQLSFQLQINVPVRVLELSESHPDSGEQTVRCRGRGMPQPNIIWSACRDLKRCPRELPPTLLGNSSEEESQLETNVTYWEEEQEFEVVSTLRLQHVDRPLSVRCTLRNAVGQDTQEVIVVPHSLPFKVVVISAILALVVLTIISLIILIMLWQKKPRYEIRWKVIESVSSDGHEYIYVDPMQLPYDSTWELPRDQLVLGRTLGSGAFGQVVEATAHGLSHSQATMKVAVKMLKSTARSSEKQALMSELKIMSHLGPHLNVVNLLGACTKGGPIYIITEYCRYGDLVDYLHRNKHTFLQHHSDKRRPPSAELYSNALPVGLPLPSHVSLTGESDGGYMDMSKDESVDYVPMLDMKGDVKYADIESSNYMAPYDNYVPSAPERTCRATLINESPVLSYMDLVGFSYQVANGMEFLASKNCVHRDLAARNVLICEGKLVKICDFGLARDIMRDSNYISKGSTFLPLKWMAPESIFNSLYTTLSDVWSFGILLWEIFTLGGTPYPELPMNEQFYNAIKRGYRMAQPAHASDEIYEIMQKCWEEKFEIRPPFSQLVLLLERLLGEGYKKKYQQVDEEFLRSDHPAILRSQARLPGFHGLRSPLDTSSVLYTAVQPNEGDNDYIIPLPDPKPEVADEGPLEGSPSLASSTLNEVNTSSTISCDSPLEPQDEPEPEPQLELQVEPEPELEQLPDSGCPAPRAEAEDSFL
- testProtocol: PDGF-BB induced phosphorylation of PDGFRβ in fibroblasts (MRC5, HTRF)
- Assay type: cell-based
Structures can show the parent of a compound that is named as a salt.
assayEndpoint: IC50 (nM)

>>> observedresult("COC(=O)c1cc2c(cc1C)/C(=C(/Nc1ccc(C(=O)NC3CCN(C)CC3)cc1)c1ccccc1)C(=O)N2 [Example 18, formate]")
16.8

###

Collected Cell viability at 100 nM (%) values appear next to each entry.
- Test system: MRC5 cells
- testProtocol: Cell viability assay in MRC5 cells (MTT)
- testParameters: 100 nM
Structures can show the parent of a compound that is named as a salt.
assayEndpoint: Cell viability at 100 nM (%)

>>> observedresult("COC(=O)c1cc2c(cc1C)/C(=C(/Nc1ccc(C(=O)N(C)[C@H]3CN(C)C[C@@H]3O)cc1)c1ccccc1)C(=O)N2")
84.4
>>> observedresult("COC(=O)c1cc2c(cc1C)/C(=C(/Nc1ccc(C(=O)N(C)C3CCN(CCO)CC3)cc1)c1ccccc1)C(=O)N2")
68.5
>>> observedresult("COC(=O)c1cc2c(cc1C)/C(=C(/Nc1ccc(C(=O)NCC3CCN(CCO)CC3)cc1)c1ccccc1)C(=O)N2 [Example 14]")
116.2
>>> observedresult("COC(=O)c1cc2c(cc1C)/C(=C(/Nc1ccc(C(=O)NCCCN(C)C)cc1)c1ccccc1)C(=O)N2")
72.3
>>> observedresult("COC(=O)c1cc2c(cc1C)/C(=C(/Nc1ccc(C(=O)N3CC[C@@H](CN(C)C)[C@H](O)C3)cc1)c1ccccc1)C(=O)N2")
86.6
>>> observedresult("COC(=O)c1cc2c(cc1C)/C(=C(/Nc1ccc(S(=O)(=O)N3CCN(CCO)CC3)cc1)c1ccccc1)C(=O)N2 [Example 26, formate]")
84.4

###

- Test system: MRC5 cells
- testProtocol: Cell viability assay in MRC5 cells (MTT)
- testParameters: 300 nM
Counter-ions that a name gives are not always drawn.
Collected Cell viability at 300 nM (%) values appear next to each entry.
assayEndpoint: Cell viability at 300 nM (%)

>>> observedresult("COC(=O)c1cc2c(cc1C)/C(=C(/Nc1ccc(C(=O)N3CCC(O)(CN4CCOCC4)CC3)cc1)c1ccccc1)C(=O)N2")
71.7
>>> observedresult("COC(=O)c1cc2c(cc1C)/C(=C(/Nc1ccc(C(=O)N3CCC4(CC3)C(=O)NCCCN4C)cc1)c1ccccc1)C(=O)N2")
58.8
>>> observedresult("COC(=O)c1cc2c(cc1C)/C(=C(/Nc1ccc(C(=O)NCCN3CCS(=O)(=O)CC3)cc1)c1ccccc1)C(=O)N2")
81.2
>>> observedresult("COC(=O)c1cc2c(cc1C)/C(=C(/Nc1ccc(S(=O)(=O)N3CCN(CCO)CC3)cc1)c1ccccc1)C(=O)N2 [Example 26, formate]")
91.6
>>> observedresult("COC(=O)c1ccc2c(c1)NC(=O)/C2=C(\\Nc1ccc(N(C)C(=O)CN2CCN(C)CC2)cc1)c1ccccc1 [Nintedanib, reference compound]")
105.6
>>> observedresult("COCCN(C)CCNC(=O)c1ccc(N/C(=C2\\C(=O)Nc3cc(C(=O)OC)c(C)cc32)c2ccccc2)cc1")
122.5
>>> observedresult("COC(=O)c1cc2c(cc1C)/C(=C(/Nc1ccc(C(=O)N3CCN(C)CC3)cc1)c1ccccc1)C(=O)N2")
63.6
>>> observedresult("COC(=O)c1cc2c(cc1C)/C(=C(/Nc1ccc(C(=O)NC3CCN(CCO)CC3)cc1)c1ccccc1)C(=O)N2")
93.2
>>> observedresult("COC(=O)c1cc2c(cc1C)/C(=C(/Nc1cccc(C(=O)N(C)CCN(C)C)c1)c1ccccc1)C(=O)N2")
104.3
>>> observedresult("COC(=O)c1cc2c(cc1C)/C(=C(/Nc1ccc(S(=O)(=O)NCCN3CCN(C)CC3)cc1)c1ccccc1)C(=O)N2")
89
>>> observedresult("COC(=O)c1cc2c(cc1C)/C(=C(/Nc1ccc(C(=O)NCCN3CCC(F)CC3)cc1)c1ccccc1)C(=O)N2 [Example 28, formate]")
97.6
>>> observedresult("COC(=O)c1cc2c(cc1C)/C(=C(/Nc1ccc(C(=O)NCCN(C)C)cc1)c1ccccc1)C(=O)N2 [Example 2, formate]")
91
>>> observedresult("COC(=O)c1cc2c(cc1C)/C(=C(/Nc1ccc(C(=O)NCC3(N(C)C)CCOCC3)cc1)c1ccccc1)C(=O)N2")
77.2
